- Test system: Mycobacterium tuberculosis
- protocol summary: Antimycobacterial activity against Mycobacterium tuberculosis H37Rv after up to 28 days
- Assay type: functional
- measurement conditions: 672 h
Overview of reported MIC across a group of compounds:

{"given smiles": "NNc1nc2c([N+](=O)[O-])cccc2s1", "unit spec": "µg/mL", "MIC": 500}
{"given smiles": "CO[C@H]1/C=C/O[C@@]2(C)Oc3c(C)c(O)c4c(O)c(c(/C=N/N5CCN(C)CC5)c(O)c4c3C2=O)NC(=O)/C(C)=C\\C=C\\[C@H](C)[C@H](O)[C@@H](C)[C@@H](O)[C@@H](C)[C@H](OC(C)=O)[C@@H]1C", "unit spec": "µg/mL", "MIC": 40}
{"given smiles": "NNc1nc2ccc(Cl)cc2s1", "unit spec": "µg/mL", "MIC": 200}
{"given smiles": "NNc1nc2cc(Cl)c(Cl)cc2s1", "unit spec": "µg/mL", "MIC": 250}
{"given smiles": "NNc1nc2ccc([N+](=O)[O-])cc2s1", "unit spec": "µg/mL", "MIC": 250}
